- System: U3A STAT3-luciferase reporter, IL-6 stimulated, luminescence
- assayProcedure: STAT3 activators in IL-6-treated reporter cells, late-stage follow-up, counter-screen for STAT1 activator project, U3A cells, luminescence, dose response, powder samples (AID 434940)
Activity calls are given as the source filed them.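 How the source made its calls: active means STAT3 activation with EC50 of 10 µM or lower; inactive means EC50 above 10 µM or none.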
measurementKind: EC50

Solved cases below.
CC(=O)NC(=S)Nc1sc2c(c1C#N)CCCCC2 > 55.7 µM (inactive)
O=C(/C=C/Nc1ccccc1F)c1ccc(Br)cc1 > 55.7 µM (inactive)
COc1ccc2[nH]c3c(c2c1)CCn1c-3nc2ccccc2c1=O > 18.6 µM (inactive)

Now turn to the next compound.
Value of EC50 reported for the compound "COc1ccc(-c2csc(N3C(=O)CNC3=S)n2)cc1" is > 55.7 µM (inactive)

###

- Tested on: U3A STAT3-luciferase reporter, IL-6 stimulated, luminescence
- assayProcedure: STAT3 activators in IL-6-treated reporter cells, late-stage follow-up, counter-screen for STAT1 activator project, U3A cells, luminescence, dose response, powder samples (AID 434940)
Activity calls are given as the source filed them.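 The calls were made as follows: active = STAT3 activation with EC50 of 10 µM or lower; inactive = EC50 above 10 µM or none.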
Outcome field: choose from active, inactive

Worked set:
Cc1nnc(SCC(=O)Nc2ccc(-c3nc4ccccc4s3)cc2)s1 inactive
COc1ccc(-c2cc(C)nc3c(-c4ccccc4)cnn23)cc1 inactive

Enquiry: Which outcome did this test record for the molecule "Cc1ccc(C(=O)Nc2nc3ccccc3s2)s1" ?
Return: inactive

Enquiry: Which outcome did this test record for the molecule "O=C(Nc1nc2ccccc2s1)c1cc2ccccc2s1" ?
Return: inactive

Enquiry: Which outcome did this test record for the molecule "CCN(CC)c1ccc2cc(C(=O)Nc3ccccn3)c(=O)oc2c1" ?
Return: active

Enquiry: Which outcome did this test record for the molecule "Cc1cc(-c2ccncc2)n2ncc(-c3ccccc3)c2n1" ?
Return: inactive

Data credit: PubChem BioAssay AID434940
